Consider the following molecules; for each one, report its normalized growth.
Experiment: chemical genetic growth profiling, strain panel (AID 1159580);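 also: tested at 20 µM; growth read once vehicle control cultures reached saturation at 30 °C; 1 = growth at the plate median or of vehicle wells; lower values mean less growth of the strain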
Details: S. cerevisiae deletion strains, growth OD, locus YIR030C, strain dcg1, hits give low values
The campaign covered roughly 5,500 compounds. About 2,000 (36%) were called active. Not shown: some 18% with an inconclusive outcome. The list shows a part of the results.
// print number alone

Ask: Fill blank: measured normalized growth of the molecule `O=C(/C=C/c1ccccc1)c1c(O)cc(O)cc1O` is ____.
Result: 0.999

Ask: Sample CC(=O)OC1CCC2(O)CC1(C)CCC1C2CC1(C)C (stereo unspecified) — what was its normalized growth?
Result: 0.972

Ask: Quick one: normalized growth of `O=C(/C=C/c1ccccc1)c1ccc(O[C@@H]2O[C@H](CO)[C@@H](O)[C@H](O)[C@H]2O)cc1O` ?
Result: 0.881

Ask: Requested field: normalized growth. Item: `CN1CCN(C2=Nc3cc(Cl)ccc3Nc3ccccc32)CC1`
Result: 1.02

Ask: Look up normalized growth for this molecule: `CNC(=O)Oc1ccccc1OC(C)C`
Result: 0.986

Ask: So what's the measured normalized growth for this one? C=C(C)C1Cc2c(ccc(C(=O)O)c2O)O1 (stereo unspecified)
Result: 0.957

Ask: Give its normalized growth value. Item: CC(=O)O[C@@H]1C2CC[C@@H]3C1(C[C@@H](O)[C@@]1(O)[C@@H](C[C@H](O)C1(C)C)[C@]3(C)O)C[C@@]2(C)O (stereo partly specified)
Result: 0.993

Ask: Reported normalized growth for `COc1ccc(NS(=O)(=O)c2ccc(N)cc2)nn1` : what is it?
Result: 0.99

Ask: normalized growth lookup needed for C=C(C)C1Cc2c(ccc3c(=O)c4c(oc23)COc2cc(OC)c(OC)cc2-4)O1 (stereo unspecified) , thanks.
Result: 0.999

Ask: What does the data say about its normalized growth? Entry: CC(=O)OC1CCC23CC1(C)CCC2C(C)(C)CC3OC(C)=O (stereo unspecified)
Result: 0.988

Ask: Tell me the measured normalized growth of `CCCc1ncc(C[n+]2ccccc2C)c(N)n1` , please.
Result: 1.02

###

Field: normalized growth. Provide a value for each of the molecules that follow.
Assay: chemical genetic growth profiling, strain panel (AID 1159580);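 also: tested at 20 µM; growth read once vehicle control cultures reached saturation at 30 °C; 1 = growth at the plate median or of vehicle wells; lower values mean less growth of the strain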
Conditions: S. cerevisiae deletion strains, growth OD, locus YJL129C, strain trk1, hits give low values
In all, about 5,500 compounds went through this assay and about 2,000 (36%) were called active. About 18% were inconclusive and are not listed. The list shows a part of the results.
Provide a numeric answer; units are not to be included.

Ask: Reported normalized growth, molecule `COc1ccc(NS(=O)(=O)c2ccc(N)cc2)nn1` : ____
Result: 1

Ask: So what does the record say about normalized growth for `O=C(N[C@@H](CO)[C@H](O)c1ccc([N+](=O)[O-])cc1)C(Cl)Cl` ?
Result: 1.01

Ask: May I ask what normalized growth has been recorded for `O=C(/C=C/c1ccc(O)cc1)c1ccccc1O` ?
Result: 0.463

Ask: Would you kindly share the measured normalized growth for `CC(C)[C@@H]1CC[C@@H](C)CC1=O` ?
Result: 1.01

Ask: Any idea what normalized growth was measured for `O=C(O)CC[N+](=O)[O-]` ?
Result: 1.01

Ask: Fill blank: measured normalized growth of the molecule `Cn1c(=O)[nH]c2ncn(C)c2c1=O` is ____.
Result: 0.967

Ask: Given O=C(O)C1=C(CSc2nnnn2CS(=O)(=O)O)CS[C@@H]2C(NC(=O)[C@H](O)c3ccccc3)C(=O)N12 (stereo partly drawn) , state its recorded normalized growth.
Result: 0.961

Ask: I'd like to know its normalized growth. The molecule in question is `CN1CCN(C2=Nc3cc(Cl)ccc3Nc3ccccc32)CC1`
Result: 0.969

Ask: Find the recorded normalized growth belonging to `O=C(/C=C/c1ccccc1)c1ccc(O)cc1O` and report it.
Result: 0.0857

Ask: Give its normalized growth value. Item: CC(=O)OC[C@@]1(O)C[C@@]23CCC4c5ccoc5CC[C@]4(C)C2CC[C@@H]1C3 (stereo partly drawn)
Result: 0.984

Ask: Can you look up the measured normalized growth of Cc1cc2nc3c(=O)[nH]c(=O)nc-3n(CC(O)C(O)C(O)CO)c2cc1C (stereo not drawn) for me?
Result: 0.996

Ask: Which normalized growth value is on record for `CCCCCCCCCCCCCCCC(=O)OC[C@H](NC(=O)C(Cl)Cl)[C@H](O)c1ccc([N+](=O)[O-])cc1` ?
Result: 1.09

Ask: State the recorded normalized growth for this entry: `Cn1c(=O)c2c(ncn2C)n(C)c1=O`
Result: 0.95

Ask: GET /values?readout=normalized growth&item= C[N+]12CCC(CC1)C(OC(=O)C(O)(c1ccccc1)c1ccccc1)C2 (stereo not drawn)
Result: 0.974

Ask: Which value of normalized growth has been reported for `O=c1c(O)c(-c2ccccc2)oc2cccc(O)c12` in the records?
Result: 0.673

Ask: Quick one: normalized growth for `COc1cc(Cc2cnc(N)nc2N)cc(OC)c1OC` ?
Result: 1.01

Ask: Given the entry `Cn1cnc2c1c(=O)[nH]c(=O)n2C` , report its measured normalized growth.
Result: 0.963

Ask: What value of measured normalized growth is listed for `NS(=O)(=O)c1cc2c(cc1Cl)NCNS2(=O)=O` ?
Result: 1

Ask: Entry `Cn1c(=O)c2c(ncn2CCO)n(C)c1=O` has what normalized growth?
Result: 1.04

Ask: # query: normalized growth of entry `C=C[C@H]1CN2CC[C@H]1C[C@H]2[C@H](O)c1ccnc2ccccc12`
Result: 0.988

Ask: State the recorded normalized growth for this entry: `CCC[C@@H]1C[C@@H](C(=O)N[C@H]([C@H]2O[C@H](SC)[C@H](O)[C@@H](O)[C@H]2O)[C@H](C)O)N(C)C1`
Result: 0.984

Ask: // normalized growth lookup, key: CC(NC(C)(C)C)C(=O)c1cccc(Cl)c1 (stereo not drawn)
Result: 1.01

Ask: Fill in the blank: the reported normalized growth of COc1ccccc1OCC(O)COC(N)=O (stereo not drawn) is ____.
Result: 0.972

###

Assay: chemical genetic growth profiling, strain panel (AID 1159580);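 also: tested at 20 µM; growth read once vehicle control cultures reached saturation at 30 °C; 1 = growth at the plate median or of vehicle wells; lower values mean less growth of the strain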
Conditions: S. cerevisiae deletion strains, growth OD, locus YMR125W, strain sto1
Among all 5,500 compounds or so, about 2,000 (36%) were called active. Not shown: some 18% with an inconclusive outcome. Cut-off read from the data, not from the text of the source: active = normalized growth mostly below about 0.91 (no sharp cut-off); inconclusive = no clear call, values can overlap the other calls; inactive = mostly above about 0.92. The list shows a part of the results.
I would appreciate it if you answered using one of these outcomes: true (active), false (inactive)

Ask: Which outcome was assigned to `CC(C)[C@@H]1CC[C@@H](C)C[C@H]1OC(=O)c1ccccc1` in this test?
Result: false

Ask: Any idea what this test logged for CC(=O)OC1CCC23CC1(C)CCC2C(C)(C)CC3OC(C)=O (stereo unspecified) ?
Result: false

Ask: Dear colleague, could you share the recorded outcome for `O=c1c(O)c(-c2ccccc2)oc2cc(O)ccc12` when you have a moment?
Result: false

Ask: For this compound, state the assay outcome: `O=C1C=C(O)c2ccccc2C1=O`
Result: false

Ask: Query: recorded result category for `COc1cc(OC)c2c(OC)c(-c3ccc4c(c3)OCO4)c(=O)oc2c1` in this test
Result: false

Ask: Any idea what this test logged for `COc1cc(Cc2cnc(N)nc2N)cc(OC)c1OC` ?
Result: false

Ask: What outcome does the record of this test show for `CNC(=O)N(C)c1nnc(C(C)(C)C)s1` ?
Result: false

Ask: Per the records of this test, what outcome belongs to `C=C[C@H]1CN2CC[C@H]1C[C@H]2[C@H](O)c1ccnc2ccccc12` ?
Result: false

Ask: Can you look up the reported call for `O=c1c(O)c(-c2ccc(O)cc2)oc2ccccc12` for me?
Result: false

Ask: Recorded call for `COc1ccc(NS(=O)(=O)c2ccc(N)cc2)nn1` ?
Result: false

Ask: What did the test return for `NC(=NCCCCCCN=C(N)N=C(N)Nc1ccc(Cl)cc1)N=C(N)Nc1ccc(Cl)cc1` ?
Result: true

Ask: Kindly provide the recorded test outcome for the following compound: `O=C1NS(=O)(=O)c2ccccc21`
Result: false

Ask: Each compound tested received a call. Report the one for `O=C(/C=C/c1ccccc1)c1ccc(O[C@@H]2O[C@H](CO)[C@@H](O)[C@H](O)[C@H]2O)cc1O` .
Result: false

Ask: What did this assay record as the result for `CC(=O)NS(=O)(=O)c1ccc(N)cc1` ?
Result: false

Ask: Test call for this compound, please: `CNC(=O)Oc1ccccc1OC(C)C`
Result: false

Ask: Tell me the assay call for `CC(=O)Nc1c(I)cc(I)c(C(=O)O)c1I` please.
Result: false

Ask: Record lookup: outcome of this test for CC(C)CCCC(C)N (stereo unspecified) ?
Result: false

Ask: Outcome? `NNCc1ccccc1`
Result: false

Ask: Please let me know the test result on file for CC(=O)OC1CCC2(O)CC1(C)CCC1C2CC1(C)C (stereo unspecified) .
Result: false

Ask: Check the results log: what was the call for CC12CCC(OC(=O)c3ccccc3)CC1CCc1ccccc12 (stereo unspecified) ?
Result: false

Ask: Dear colleague, could you share the recorded outcome for `C/C(=C\CO)CC[C@H](C)CCC[C@H](C)CCCC(C)C` when you have a moment?
Result: true

Ask: Lab log entry: `CCCN(CCC)c1c([N+](=O)[O-])cc(C(F)(F)F)cc1[N+](=O)[O-]` — outcome as called in the assay?
Result: false

Ask: Please share the test call associated with `O=C1C=CC(=O)c2ccccc21` .
Result: true

Ask: Please state the recorded outcome for this compound: `CCCCCC/C=C\CCCCCCCc1cccc(O)c1C(=O)O`
Result: true

Ask: Returns: the outcome recorded for CC1CC(OC(=O)c2ccccc2O)CC(C)(C)C1 (stereo unspecified) in this assay.
Result: false

Ask: // return assay outcome for `OC[C@H]1O[C@@H](Oc2ccc(O)cc2)[C@H](O)[C@@H](O)[C@@H]1O`
Result: false

Ask: Recorded call for CC(=O)O[C@@H]1C2CC[C@@H]3C1(C[C@@H](O)[C@@]1(O)[C@@H](C[C@H](O)C1(C)C)[C@]3(C)O)C[C@@]2(C)O (stereo partly specified) ?
Result: false

Ask: Please state the recorded outcome for this compound: `O=C(/C=C/c1ccc(O)cc1)c1ccccc1O`
Result: true

Ask: Hi, do you know how `CC(C)[C@@H]1CC[C@@H](C)CC1=O` came out in this test?
Result: false

Ask: I'd appreciate the recorded outcome for C[C@H]1C(=O)CCC2[C@]3(C)CC[C@@]4(C)C5CC(C)(C)CC[C@]5(C)CC[C@]4(C)C3CC[C@@]21C (stereo partly specified) from this test.
Result: false

Ask: Fill in: this test's call for CO/N=C(/C(=O)NC1C(=O)N2C(C(=O)OCOC(=O)C(C)(C)C)=C(/C=C\c3scnc3C)CSC12)c1csc(N)n1 (stereo unspecified) is ___
Result: false

Ask: Dear all, I need the recorded test outcome for `O=C(O)c1cc(=O)c2ccccc2[nH]1` , thank you.
Result: false

Ask: Lab log entry: `O=c1c(O)c(-c2ccccc2)oc2ccccc12` — outcome as called in the assay?
Result: false

Ask: // return assay outcome for O=C(c1ccccc1)c1ccc2n1CCC2C(=O)O (stereo unspecified)
Result: false

Ask: // param item: `COc1cc([C@@H]2c3cc4c(cc3[C@H](O)[C@H]3COC(=O)[C@H]23)OCO4)cc(OC)c1OC` ; yields the recorded call
Result: false

Ask: What did this assay record as the result for `O=c1c(O)c(-c2ccccc2)oc2ccc3occc3c12` ?
Result: true

Ask: Tell me the recorded outcome of this test for `CC(=O)OCC1=C(C(=O)O)N2C(=O)[C@@H](NC(=O)CSc3ccncc3)[C@H]2SC1` .
Result: false

Ask: Tell me the recorded outcome of this test for `CC(=O)c1c(O)cc(O)cc1O` .
Result: false

Ask: Which outcome did this test record for the compound Oc1cc2c(cc1O)C(c1ccccc1)CNCC2 (stereo unspecified) ?
Result: false

Ask: Which outcome did this test record for the compound `O=c1c(O)cccc2cc(O)c(O)c(O)c12` ?
Result: false

Ask: Called result for `CCCCN(CC)c1c([N+](=O)[O-])cc(C(F)(F)F)cc1[N+](=O)[O-]`
Result: false
